- Test system: POAAN
- method.description: Herbicidal post-emergence action 1b (twin sowing, 1280 g/ha)
- Type: in vivo, Poa annua
- settings: dosage 1280 g/ha, visual rating about 3 weeks after treatment
Listing of entries alongside the reported Post-emergence action at 1280 g/ha against POAAN in %.
Unit % implied. Number only.

COC(=O)[C@@H](C)Oc1nn(-c2cnccn2)c(-c2cccc(F)c2)c1Br; 100
CCOC(=O)COc1nn(-c2cnccn2)c(-c2ccc(F)nc2)c1[N+](=O)[O-]; 90
CCOC(=O)COc1nn(-c2nccnc2F)c(-c2ccc(F)c(F)c2)c1Br; 90
O=C(O)COc1nn(-c2nccnc2Cl)c(-c2ccc(F)nc2)c1Br; 100

State its Post-emergence action at 1280 g/ha against POAAN in % on POAAN: COC(=O)[C@@H](C)Oc1nn(-c2cnccn2)c(-c2ccc(F)nc2)c1C#N
90

State its Post-emergence action at 1280 g/ha against POAAN in % on POAAN: COC(=O)C(C)Oc1nn(-c2cnccn2)c(-c2ccccc2)c1Br (racemic)
100

State its Post-emergence action at 1280 g/ha against POAAN in % on POAAN: COC(=O)[C@@H](C)Oc1nn(-c2cnccn2)c(-c2ccnc(F)c2)c1Br
100

State its Post-emergence action at 1280 g/ha against POAAN in % on POAAN: COC(=O)[C@@H](C)Oc1nn(-c2cnccn2)c(-c2ccc(F)c(F)c2)c1Br
100

State its Post-emergence action at 1280 g/ha against POAAN in % on POAAN: CC(Oc1nn(-c2cnccn2)c(-c2ccc(F)c(F)c2)c1Br)C(=O)O (stereo not shown)
100

State its Post-emergence action at 1280 g/ha against POAAN in % on POAAN: O=C(O)COc1nn(-c2cnccn2)c(-c2ccc(F)nc2)c1Br
100

Values from patent US20230167088A1
